target-desc: human CB2 receptors (Homo sapiens, UniProt P34972)
Construct: expressed in transfected cells; host or cells: CHO cells
Sequence (P34972 whole entry): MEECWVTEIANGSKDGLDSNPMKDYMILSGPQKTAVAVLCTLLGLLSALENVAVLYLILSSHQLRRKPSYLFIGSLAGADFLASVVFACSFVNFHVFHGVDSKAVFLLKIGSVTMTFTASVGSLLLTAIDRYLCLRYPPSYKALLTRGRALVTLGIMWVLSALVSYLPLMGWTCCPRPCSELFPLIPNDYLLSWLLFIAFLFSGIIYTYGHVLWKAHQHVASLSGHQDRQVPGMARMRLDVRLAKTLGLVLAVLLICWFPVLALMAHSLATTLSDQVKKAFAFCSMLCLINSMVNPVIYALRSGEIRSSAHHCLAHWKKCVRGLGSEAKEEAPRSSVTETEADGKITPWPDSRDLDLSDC
measurement-protocol: functional cAMP assay, human CB2
Type: cell-based
assay-setup: CHO cells expressing human CB2, cAMP; read-out: human CB2 EC50
measure-name: EC50 (nM)
Hi! Could you send only the number? It should be in nM, unit omitted.

Report EC50 for `CC(C)(C)c1nc(N2CC[C@H](O)[C@@H]2CO)c2nnn(Cc3nnnn3C3CC3)c2n1`
18

Report EC50 for CC(Oc1nc(C(C)(C)C)nc2c1nnn2Cc1ccccc1Cl)C1CC1 (centres unmarked)
98.6

Report EC50 for `Cc1nc(Cn2nnc3c(N4CCC(F)(F)C4)nc(C(C)(C)C)nc32)no1`
0.5

Report EC50 for `CCN(CC)c1nc(C(C)(C)C)nc2c1nnn2Cc1ccccc1Cl`
17.6

Report EC50 for `Cn1nnnc1Cn1nnc2c(N3CC(F)(F)C(F)(F)C3)nc(C(C)(C)C)nc21`
0.5

Report EC50 for `CC(C)(C)c1nc(N2CCC(F)(F)C2)c2nnn(Cc3c(F)ccc(F)c3Cl)c2n1`
0.1

Report EC50 for `CC(C)(C)c1nc(N2CCC(F)(F)C2)c2nnn(Cc3ccncc3Cl)c2n1`
0.1

Report EC50 for `CC(C)(C)c1nc(N2CCC(F)(F)C2)c2nnn(Cc3ccc(Cl)cc3)c2n1`
2

Report EC50 for `C[C@@H]1CC[C@@H](C)N1c1nc(C(C)(C)C)nc2c1nnn2Cc1ccccc1Cl`
31

Report EC50 for CC1CCCN1c1nc(C(C)(C)C)nc2c1nnn2Cc1ccccc1Cl (centres unmarked)
26.9

Report EC50 for `CC(C)(C)c1nc(N2CCCO2)c2nnn(Cc3ccccc3Cl)c2n1`
11.6

Report EC50 for `CC(C)(C)c1nc(N2CC[C@H](O)C2)c2nnn(Cc3cccnc3Cl)c2n1`
0.1

Report EC50 for `CC(C)(C)c1nc(N2CC[C@H](F)C2)c2nnn(Cc3ccccc3Cl)c2n1`
0.6

Report EC50 for `CC(C)(C)c1nc(N2CCC[C@@H]2CO)c2nnn(Cc3ccccc3Cl)c2n1`
0.3

----------
Kindly supply the reported EC50 values for the records listed here.
target-desc: human CB1 receptors (Homo sapiens)
Construct: expressed in transfected cells; host or cells: CHO cells
Sequence (P21554 whole entry): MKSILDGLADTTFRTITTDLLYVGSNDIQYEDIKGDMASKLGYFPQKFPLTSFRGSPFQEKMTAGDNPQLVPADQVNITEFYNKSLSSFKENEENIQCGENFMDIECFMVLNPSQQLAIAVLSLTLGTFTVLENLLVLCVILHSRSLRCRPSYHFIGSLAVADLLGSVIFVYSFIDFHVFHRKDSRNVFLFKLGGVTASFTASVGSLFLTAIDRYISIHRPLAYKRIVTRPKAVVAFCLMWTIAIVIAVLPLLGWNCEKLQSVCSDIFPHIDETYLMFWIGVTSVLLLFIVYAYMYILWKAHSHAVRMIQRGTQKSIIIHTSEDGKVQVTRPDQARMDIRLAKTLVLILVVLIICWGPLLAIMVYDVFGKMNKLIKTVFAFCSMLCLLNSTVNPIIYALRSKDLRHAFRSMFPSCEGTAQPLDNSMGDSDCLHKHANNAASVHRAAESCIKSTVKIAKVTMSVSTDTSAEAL
measurement-protocol: functional cAMP assay, human CB1
Type: cell-based
assay-setup: CHO cells expressing human CB1, cAMP; read-out: human CB1 EC50

Report EC50 for CC(C)(C)c1nc(OC2COC2)c2nnn(Cc3ccccc3Cl)c2n1 [Example 206]
> 10000 nM

Report EC50 for Cn1nncc1Cn1nnc2c(N3CC[C@H](O)[C@@H]3CO)nc(C(C)(C)C)nc21 [Example 171]
> 10000 nM

Report EC50 for CC(C)(C)c1nc(N2CC3(COC3)C2)c2nnn(Cc3ccccc3Cl)c2n1 [Example 10]
404 nM

Report EC50 for CC(C)(C)c1nc(N2CCC(F)(F)C2)c2nnn(CC(O)c3ccccc3)c2n1 (centres unmarked) [Example 88]
391 nM

Report EC50 for CC(C)(C)c1nc(N2CC[C@@H](O)C2)c2nnn(Cc3ccccc3Cl)c2n1 [Example 27]
> 10000 nM

Report EC50 for CC(=O)N[C@@H]1CCN(c2nc(C(C)(C)C)nc3c2nnn3Cc2ccccc2Cl)C1 [Example 193]
> 10000 nM

Report EC50 for CC(C)(C)c1nc(N2CCC(F)(F)C2)c2nnn(Cc3ccccc3S(C)(=O)=O)c2n1 [Example 112]
4.7 nM

Report EC50 for Cc1nonc1Cn1nnc2c(N3CC[C@@](C)(O)C3)nc(C(C)(C)C)nc21 [Example 228-b]
> 10000 nM
